# System under test: human GPR17 short isoform (Homo sapiens (Human), UniProt Q13304)
# Sequence (Q13304 29-367): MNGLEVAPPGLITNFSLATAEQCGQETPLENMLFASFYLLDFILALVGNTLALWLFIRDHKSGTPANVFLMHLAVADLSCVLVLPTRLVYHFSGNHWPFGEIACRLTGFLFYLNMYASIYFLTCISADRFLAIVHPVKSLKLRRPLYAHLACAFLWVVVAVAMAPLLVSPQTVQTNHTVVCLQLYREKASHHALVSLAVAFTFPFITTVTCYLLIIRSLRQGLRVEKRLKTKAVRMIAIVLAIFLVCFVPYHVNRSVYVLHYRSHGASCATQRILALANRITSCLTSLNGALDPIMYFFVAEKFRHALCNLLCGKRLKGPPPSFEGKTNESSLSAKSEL
# Procedure details: GPR17 cAMP assay (hGPR17 cAMP, antagonist mode against EC80 of MDL29,951)
# Run conditions: CHO-K1 cells stably expressing human GPR17 short isoform; EC80 of agonist MDL29,951; forskolin 15 μM
Each item that follows carries a reported pIC50.
When answering, recall that pIC50 equals minus log10 of the concentration in mol/L, and write that number alone.

# Compound, Observed value
rows = [
    ("COc1nc(NS(=O)(=O)c2c[nH]c3cc(Br)ccc23)ncc1CCC#N [Example 89]", 6.67),
]

Measured pIC50, COc1nc(NS(=O)(=O)c2c[nH]c3cc(Cl)ccc23)nc(OC2CC2)c1Br [Example 71] : 4.94

For record COc1nc(NS(=O)(=O)c2c[nH]c3c(F)c(C(F)F)ccc23)nc(OC)c1OC(F)F [Example 249] the listed pIC50 is 7.44

Entry under test: COc1nc(NS(=O)(=O)c2c[nH]c3nc(Cl)ccc23)nc(OC)c1Br [Example 31] . Its pIC50 was 7.12

In plain terms, Cc1nc(NS(=O)(=O)c2c[nH]c3cc(Cl)ccc23)nc(C)c1Br [Example 33] has a documented pIC50 of 6.24

The compound identified as COc1nc(NS(=O)(=O)c2c[nH]c3cc(Cl)ccc23)nc(OC)c1C#N [Example 32] registered its pIC50 at 6.63

----------
# maps each entry to its IC50
# System under test: human GPR17 short isoform (Homo sapiens (Human))
# Procedure details: GPR17 cAMP assay (hGPR17 cAMP, antagonist mode against EC80 of MDL29,951)
# Run conditions: CHO-K1 cells stably expressing human GPR17 short isoform; EC80 of agonist MDL29,951; forskolin 15 μM
Give just the numeric value; µM need not be written.

Here's what some known entries look like.
# Compound, IC50 / µM
rows = [
    ("COc1nc(NS(=O)(=O)c2c[nH]c3c(OC4CC4)c(Cl)ccc23)ncc1CC(F)F [Example 127]", 0.03),
    ("COc1nc(NS(=O)(=O)c2c[nH]c3cc(C)ccc23)ncc1CC(F)F [Example 182]", 0.101),
    ("COc1nc(NS(=O)(=O)c2c[nH]c3cc(Cl)ccc23)ncc1C#N [Example 23]", 0.256),
    ("COc1nc(NS(=O)(=O)c2c[nH]c3cc(F)ccc23)nc(OC)c1OC(F)F [Example 256]", 0.215),
    ("COc1nc(NS(=O)(=O)c2c[nH]c3cc(Cl)ccc23)ncc1OC(F)(F)C(F)Cl (stereo not shown) [Example 44]", 0.131),
]

Reported IC50 ( COc1nc(NS(=O)(=O)c2c[nH]c3c(F)c(Cl)ccc23)ncc1OCCF [Example 2] ) = 0.036

IC50 recorded for this compound, COc1nc(NS(=O)(=O)c2c[nH]c3c(Br)c(Cl)ccc23)nc(OC)c1CC(F)F [Example 283] , is 0.013

Field IC50 (entry COc1nc(NS(=O)(=O)c2c[nH]c3nc(Cl)ccc23)ncc1OCC(F)F [Example 170] ) reads 0.162

Just so you know, measured IC50 for COc1nc(NS(=O)(=O)c2c[nH]c3cc(Br)ccc23)nc(OC)c1CC(F)F [Example 245] came out at 0.027

The compound COc1nc(NS(=O)(=O)c2c[nH]c3c(Cl)c(Cl)ccc23)ncc1CC(F)F [Example 210] showed IC50 equal to 0.018

For this compound ( COc1nc(NS(=O)(=O)c2c[nH]c3nc(C(F)F)ccc23)nc(OC)c1CCC(F)F [Example 98] ), measured IC50 is 0.025
